molecular target: GluN2B glutamate receptors (Homo sapiens (Human), UniProt Q05586+Q13224); experiment: Whole-cell patch clamp of mammalian cells (Ionworks Barracuda), positive allosteric modulation, GluN2B; type: cell-based; conditions: % potentiation of current elicited with EC20 L-glutamate and 30 μM glycine; read-out: Avg Emax 2B (%)
Sequence (Q13224 27-1484, other chains not shown): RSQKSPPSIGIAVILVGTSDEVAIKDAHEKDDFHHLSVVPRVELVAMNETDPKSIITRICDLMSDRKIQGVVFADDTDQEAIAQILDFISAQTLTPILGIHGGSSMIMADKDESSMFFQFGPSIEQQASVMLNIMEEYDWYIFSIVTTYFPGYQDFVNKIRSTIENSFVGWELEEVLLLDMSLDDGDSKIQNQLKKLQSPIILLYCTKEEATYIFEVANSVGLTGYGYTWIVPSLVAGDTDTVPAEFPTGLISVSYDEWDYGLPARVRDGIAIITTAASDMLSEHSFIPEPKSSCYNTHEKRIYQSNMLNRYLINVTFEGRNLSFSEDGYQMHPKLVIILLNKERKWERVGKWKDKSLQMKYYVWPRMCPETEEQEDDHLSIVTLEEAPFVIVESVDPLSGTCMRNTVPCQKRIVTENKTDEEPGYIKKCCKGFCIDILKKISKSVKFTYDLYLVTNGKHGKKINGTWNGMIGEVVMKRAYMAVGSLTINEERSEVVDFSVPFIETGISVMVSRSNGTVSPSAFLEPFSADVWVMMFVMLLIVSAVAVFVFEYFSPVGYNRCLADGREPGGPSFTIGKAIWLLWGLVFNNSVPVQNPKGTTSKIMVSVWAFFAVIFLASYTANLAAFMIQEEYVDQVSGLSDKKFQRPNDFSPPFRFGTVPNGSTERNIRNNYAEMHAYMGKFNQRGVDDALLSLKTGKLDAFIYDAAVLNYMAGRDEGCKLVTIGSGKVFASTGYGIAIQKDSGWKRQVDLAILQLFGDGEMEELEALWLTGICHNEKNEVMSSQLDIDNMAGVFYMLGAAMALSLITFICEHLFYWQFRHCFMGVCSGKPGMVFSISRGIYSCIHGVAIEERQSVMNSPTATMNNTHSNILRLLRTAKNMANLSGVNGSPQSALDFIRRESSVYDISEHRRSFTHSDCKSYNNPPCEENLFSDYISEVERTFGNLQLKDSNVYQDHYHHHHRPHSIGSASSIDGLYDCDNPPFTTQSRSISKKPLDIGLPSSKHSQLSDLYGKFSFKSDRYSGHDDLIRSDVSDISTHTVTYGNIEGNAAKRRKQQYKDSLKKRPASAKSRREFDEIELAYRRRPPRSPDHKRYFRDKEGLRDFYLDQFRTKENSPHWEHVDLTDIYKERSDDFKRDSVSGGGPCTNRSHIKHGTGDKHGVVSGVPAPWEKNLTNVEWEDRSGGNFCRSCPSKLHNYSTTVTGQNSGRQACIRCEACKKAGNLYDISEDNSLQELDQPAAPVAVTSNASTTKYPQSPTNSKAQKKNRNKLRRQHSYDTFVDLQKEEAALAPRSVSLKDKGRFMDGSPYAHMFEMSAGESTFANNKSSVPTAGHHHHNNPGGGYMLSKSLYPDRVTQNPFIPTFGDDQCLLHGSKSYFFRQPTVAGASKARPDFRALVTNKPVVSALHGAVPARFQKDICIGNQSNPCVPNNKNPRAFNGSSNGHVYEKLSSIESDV
Kindly state Emax for each of the entries shown.
# number only, unit % dropped from output

// query What reported Emax corresponds to "CC[C@H](O)CC[C@@H](C)[C@H]1CC[C@H]2[C@@H]3CC=C4C[C@](O)(CC)CC[C@@H]4[C@H]3CC[C@]12C" on GluN2B glutamate receptors (Homo sapiens (Human), UniProt Q05586+Q13224)?
// result 233

// query What reported Emax corresponds to "CC[C@]1(O)CC[C@H]2C(=CC[C@@H]3[C@@H]2CC[C@]2(C)[C@@H]([C@H](C)CCCC4(O)CCOCC4)CC[C@@H]32)C1" on GluN2B glutamate receptors (Homo sapiens (Human), UniProt Q05586+Q13224)?
// result 121

// query What reported Emax corresponds to "CC[C@]1(O)CC[C@H]2C(=CC[C@@H]3[C@@H]2CC[C@]2(C)[C@@H]([C@H](C)CCC[C@@H](C)O)CC[C@@H]32)C1" on GluN2B glutamate receptors (Homo sapiens (Human), UniProt Q05586+Q13224)?
// result 58.2

// query What reported Emax corresponds to "C[C@H](CCC[C@H](O)C(F)(F)F)[C@H]1CC[C@H]2[C@@H]3CC[C@H]4C[C@](O)(C(F)(F)F)CC[C@]4(C)[C@H]3CC[C@]12C" on GluN2B glutamate receptors (Homo sapiens (Human), UniProt Q05586+Q13224)?
// result 70

// query What reported Emax corresponds to "C[C@H](CC[C@@H](O)C1CCOCC1)[C@H]1CC[C@H]2[C@@H]3CC[C@H]4C[C@](O)(C(F)(F)F)CC[C@]4(C)[C@H]3CC[C@]12C" on GluN2B glutamate receptors (Homo sapiens (Human), UniProt Q05586+Q13224)?
// result 215

====

Kindly state pEC50 for each of the entries shown.
target: GluN2B glutamate receptors (Homo sapiens (Human), UniProt Q05586+Q13224); experiment: Whole-cell patch clamp of mammalian cells (Ionworks Barracuda), positive allosteric modulation, GluN2B; type: cell-based
Reminder that pEC50 means the negative base-10 logarithm of the concentration expressed in mol/L.

// query What value of pEC50 has been reported for the following compound? "CC[C@]1(O)CC[C@@]2(C)C(=CC[C@H]3[C@@H]4CC[C@H]([C@H](C)CC[C@H](O)Cc5ccccc5)[C@@]4(C)CC[C@@H]32)C1"
// result 5.90

// query What value of pEC50 has been reported for the following compound? "CC[C@]1(O)CC[C@@]2(C)C(=CC[C@H]3[C@@H]4CC[C@H]([C@H](C)CC[C@@H](O)Cc5ccccc5)[C@@]4(C)CC[C@@H]32)C1"
// result 6.63

// query What value of pEC50 has been reported for the following compound? CC(C)C(O)CC[C@@H](C)[C@H]1CC[C@H]2[C@@H]3CC[C@H]4C[C@](O)(C(F)(F)F)CC[C@]4(C)[C@H]3CC[C@]12C (stereo partly shown)
// result 6.83

// query What value of pEC50 has been reported for the following compound? "CC[C@]1(O)CC[C@@]2(C)C(=CC[C@H]3[C@@H]4CC[C@H]([C@H](C)CC[C@@H](O)c5ccc(F)cc5)[C@@]4(C)CC[C@@H]32)C1"
// result 7.04

// query What value of pEC50 has been reported for the following compound? "C[C@H](CC[C@]1(O)CC[C@H](C)CC1)[C@H]1CC[C@H]2[C@@H]3CC[C@H]4C[C@](O)(C(F)(F)F)CC[C@]4(C)[C@H]3CC[C@]12C"
// result 6.29

// query What value of pEC50 has been reported for the following compound? "C[C@H](CC[C@H](O)C1CCCCC1)[C@H]1CC[C@H]2[C@@H]3CC[C@H]4C[C@](O)(C(F)(F)F)CC[C@]4(C)[C@H]3CC[C@]12C"
// result 6.21

// query What value of pEC50 has been reported for the following compound? CC[C@]1(O)CC[C@H]2C(=CC[C@@H]3[C@@H]2CC[C@]2(C)[C@@H]([C@H](C)CCC(O)C(C)(C)C)CC[C@@H]32)C1 (stereo partly shown)
// result 6.87

// query What value of pEC50 has been reported for the following compound? "CC[C@]1(O)CC[C@@]2(C)C(=CC[C@H]3[C@@H]4CC[C@H]([C@H](C)CC[C@@H](O)c5ccccn5)[C@@]4(C)CC[C@@H]32)C1"
// result 6.18

// query What value of pEC50 has been reported for the following compound? "C[C@H](CCC1(O)CCCCC1)[C@H]1CC[C@H]2[C@@H]3CC[C@H]4C[C@](O)(C(F)(F)F)CC[C@]4(C)[C@H]3CC[C@]12C"
// result 6.39

====

Kindly state EC50 for each of the entries shown.
target: GluN2B glutamate receptors (Homo sapiens (Human), UniProt Q05586+Q13224); test: Whole-cell patch clamp of mammalian cells (Ionworks Barracuda), positive allosteric modulation, GluN2B; assay type: cell-based
# number only, unit nM dropped from output

// query What value of EC50 has been reported for the following compound? "CC[C@]1(O)CC[C@H]2[C@@H](CC[C@@H]3[C@@H]2CC[C@]2(C)[C@@H]([C@H](C)CCCC(C)(C)O)CC[C@@H]32)C1"
// result 220

// query What value of EC50 has been reported for the following compound? CC[C@]1(O)CC[C@H]2[C@@H](CC[C@@H]3[C@@H]2CC[C@]2(C)[C@@H]([C@H](C)CCC(O)C(C)C)CC[C@@H]32)C1 (some centres unmarked)
// result 189

// query What value of EC50 has been reported for the following compound? "C[C@H](CCC1(O)CCC(C)(C)CC1)[C@H]1CC[C@H]2[C@@H]3CC=C4C[C@](O)(C(F)(F)F)CC[C@]4(C)[C@H]3CC[C@]12C"
// result 760

// query What value of EC50 has been reported for the following compound? "CC(C)[C@H]1CC[C@@](O)(CC[C@@H](C)[C@H]2CC[C@H]3[C@@H]4CC[C@H]5C[C@](O)(C(F)(F)F)CC[C@]5(C)[C@H]4CC[C@]23C)CC1"
// result 640

// query What value of EC50 has been reported for the following compound? "CC[C@]1(O)CC[C@H]2C(=CC[C@@H]3[C@@H]2CC[C@]2(C)[C@@H]([C@H](C)CCC[C@@H](O)C(C)(C)C)CC[C@@H]32)C1"
// result 1880

====

Kindly state EC50 for each of the entries shown.
target: GluN2B glutamate receptors (Homo sapiens (Human), UniProt Q05586+Q13224); assay: Whole-cell patch clamp of mammalian cells (Ionworks Barracuda), positive allosteric modulation, GluN2B; assay type: cell-based
# number only, unit nM dropped from output

// query What value of EC50 has been reported for the following molecule? "C[C@H](CC[C@@H](O)C1CCC1)[C@H]1CC[C@H]2[C@@H]3CC[C@H]4C[C@](O)(C(F)(F)F)CC[C@]4(C)[C@H]3CC[C@]12C"
// result 306

// query What value of EC50 has been reported for the following molecule? "CC[C@]1(O)CC[C@H]2C(=CC[C@@H]3[C@@H]2CC[C@]2(C)[C@@H]([C@H](C)CC[C@@H](O)C(C)C)CC[C@@H]32)C1"
// result 85.1

// query What value of EC50 has been reported for the following molecule? CC(C)C(O)CC[C@@H](C)[C@H]1CC[C@H]2[C@@H]3CC[C@H]4C[C@@](C)(O)CC[C@@H]4[C@H]3CC[C@]12C (stereo partly shown)
// result 288

// query What value of EC50 has been reported for the following molecule? "C[C@H](CC[C@@H](O)C1CCOCC1)[C@H]1CC[C@H]2[C@@H]3CC[C@H]4C[C@](O)(C(F)(F)F)CC[C@]4(C)[C@H]3CC[C@]12C"
// result 175

// query What value of EC50 has been reported for the following molecule? "C[C@H](CC[C@@H](O)C(C)(C)C)[C@H]1CC[C@H]2[C@@H]3CC[C@@H]4C[C@](O)(C(F)(F)F)CC[C@]4(C)[C@H]3CC[C@]12C"
// result 1120

// query What value of EC50 has been reported for the following molecule? "CC[C@]1(O)CC[C@@]2(C)C(=CC[C@H]3[C@@H]4CC[C@H]([C@H](C)CC[C@@H](O)c5ccccc5)[C@@]4(C)CC[C@@H]32)C1"
// result 247

// query What value of EC50 has been reported for the following molecule? "CC[C@]1(O)CC[C@H]2C(=CC[C@@H]3[C@@H]2CC[C@]2(C)[C@@H]([C@H](C)CCC4(O)CCC(C)(C)CC4)CC[C@@H]32)C1"
// result 1350

// query What value of EC50 has been reported for the following molecule? "CC[C@]1(O)CC[C@@]2(C)[C@@H](CC[C@@H]3[C@@H]2CC[C@]2(C)[C@@H]([C@H](C)CC[C@H](O)c4ccccn4)CC[C@@H]32)C1"
// result 874

// query What value of EC50 has been reported for the following molecule? "CC[C@]1(O)CC[C@@]2(C)C(=CC[C@H]3[C@@H]4CC[C@H]([C@H](C)CC[C@H](O)c5ccc(F)cc5)[C@@]4(C)CC[C@@H]32)C1"
// result 216
